Assay System: hCA II (Homo sapiens, UniProt P00918)
Assay Overview: Stopped flow CO2 hydrase assay, hCA II
Format: biochemical
Readout Label: Ki (nM)

CCOC(=O)c1c(-c2ccccc2)[n+]([O-])c2cc(S(N)(=O)=O)ccc2[n+]1[O-]	5.4
N#Cc1c(-c2ccco2)[n+]([O-])c2cc(S(N)(=O)=O)ccc2[n+]1[O-]	4.4
NS(=O)(=O)c1ccc2c(c1)[n+]([O-])c(C(F)(F)F)c(C(=O)c1ccccc1)[n+]2[O-]	4.8
N#Cc1c(-c2ccc(Cl)cc2)[n+]([O-])c2ccc(S(N)(=O)=O)cc2[n+]1[O-]	5
N#Cc1c(-c2ccc(Cl)cc2)[n+]([O-])c2cc(S(N)(=O)=O)ccc2[n+]1[O-]	5.1

###

Assay System: hCA I (Homo sapiens)
Assay Overview: Stopped flow CO2 hydrase assay, hCA I
Format: biochemical
Experimental Setup: read-out: Ki hCA I; mean from three experiments, stopped flow CO2 hydrase assay
Readout Label: pKi
FYI, pKi means -log10 of a concentration in mol per litre.

Problem: Which pKi is reported for this molecule? N#Cc1c(-c2cccs2)[n+]([O-])c2cc(S(N)(=O)=O)ccc2[n+]1[O-]
Solution: 7.38

###

Assay System: hCA I (Homo sapiens, UniProt P00915)
Sequence (P00915 whole entry): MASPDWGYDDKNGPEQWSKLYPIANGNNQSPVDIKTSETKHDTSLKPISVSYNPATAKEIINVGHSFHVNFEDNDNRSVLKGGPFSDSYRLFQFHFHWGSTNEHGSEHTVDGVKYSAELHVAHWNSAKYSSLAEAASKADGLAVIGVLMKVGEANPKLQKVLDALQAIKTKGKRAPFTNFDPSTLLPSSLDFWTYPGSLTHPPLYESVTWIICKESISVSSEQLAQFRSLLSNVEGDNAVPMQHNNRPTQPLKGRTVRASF
Assay Overview: Stopped flow CO2 hydrase assay, hCA I
Assay type: biochemical
Readout Label: Ki (nM)

NS(=O)(=O)c1ccc2c(c1)[n+]([O-])c(C(F)(F)F)c(C(=O)c1ccccc1)[n+]2[O-] [Compound 7h]	51.5

I = CCOC(=O)c1c(C)[n+]([O-])c2cc(S(N)(=O)=O)ccc2[n+]1[O-] [Compound 7f]
II = CCOC(=O)c1c(-c2ccccc2)[n+]([O-])c2cc(S(N)(=O)=O)ccc2[n+]1[O-] [Compound 7e]
Problem: Select the item with the higher value of Ki from the options I and II listed. When you have decided, please share the label of that item.
Solution: I
(I: 63 nM, II: 42.4 nM)

###

Assay System: hCA IX (Homo sapiens, UniProt Q16790)
Assay Overview: biochemical
Assay type: biochemical
Readout Label: Ki (nM)

CC(=O)c1c(C)[n+]([O-])c2cc(S(N)(=O)=O)ccc2[n+]1[O-]	42.2

1 = N#Cc1c(-c2ccccc2)[n+]([O-])c2cc(S(N)(=O)=O)ccc2[n+]1[O-]
2 = N#Cc1c(-c2ccc(Cl)cc2)[n+]([O-])c2cc(S(N)(=O)=O)ccc2[n+]1[O-]
3 = CCOC(=O)c1c(-c2ccccc2)[n+]([O-])c2cc(S(N)(=O)=O)ccc2[n+]1[O-]
Problem: Rank entries according to their Ki, from the largest number down. Reply with the labels, ordered as the question asks.
Solution: 1, 2, 3
(1: 2400 nM, 2: 429 nM, 3: 257 nM)

###

Assay System: UniProtKB Q16790
Assay Overview: biochemical
Format: biochemical
Experimental Setup: read-out: Ki hCA IX; mean from three experiments, stopped flow CO2 hydrase assay
pKi: −log10 of the molar value.
Readout Label: pKi

Problem: Which pKi is reported for this molecule? N#Cc1c(-c2cccs2)[n+]([O-])c2cc(S(N)(=O)=O)ccc2[n+]1[O-] [Compound 7d]
Solution: < 5.00

###

Assay System: hCA II (Homo sapiens, UniProt P00918)
Assay Overview: Stopped flow CO2 hydrase assay, hCA II
Format: biochemical
Experimental Setup: read-out: Ki hCA II; mean from three experiments, stopped flow CO2 hydrase assay
Readout Label: pKi
FYI, pKi means -log10 of a concentration in mol per litre.

Problem: Which pKi is reported for this molecule? N#Cc1c(-c2cccs2)[n+]([O-])c2cc(S(N)(=O)=O)ccc2[n+]1[O-]
Solution: 8.38
